Values were extracted from the Human Domainome abundance scans (Beltran et al. 2025).

B1: Far upstream element-binding protein 1, residues 184 to 257; numbered along this chain, Q96AE4 (parent)
chain: GNAVQEIMIPASKAGLVIGKGGETIKQLQERAGVKMVMIQDGPQNTGADKPLRITGDPYKVQQAKEMVLELIRD

variants of: B1; assay: abundance fitness (aPCA) (normalised: wild type 0, dead -1); higher = more abundant; growth selection in yeast, the domain comes from the species named; conditions: Homo sapiens
Please respond with reported abundance fitness for every item in the list.
Answers are plain numbers.

// known answers, use as guide
- residueSequence: "GNAVQEIMIPASKAGLVIGKGGETIKQLQERAGVKMVMIQDGPQNTGADKPLRITGDPYKFQQAKEMVLELIRD [V61F]"
  measValue: -0.599
- residueSequence: "GNAVQEIMIPASKAGLVIGKGGETIKQLQERAGVKMVMIQDGPQNTGADKPLRITGDPYKVQQAKEMVLELIND [R73N]"
  measValue: -0.004
- residueSequence: "GNAVQEIMIPQSKAGLVIGKGGETIKQLQERAGVKMVMIQDGPQNTGADKPLRITGDPYKVQQAKEMVLELIRD [A11Q]"
  measValue: -0.078

For each of the items listed, what is its abundance fitness?
1. GNAVQEIMIPASKAPLVIGKGGETIKQLQERAGVKMVMIQDGPQNTGADKPLRITGDPYKVQQAKEMVLELIRD [G15P]
2. GNAVQEIMIPASKAGLVIGKGGETIKQLQERAGVKMVMIQDGPQNTGADKPLRPTGDPYKVQQAKEMVLELIRD [I54P]
3. GNAVQEIMIPASKAGLVIGKGGETIKQLQERAGVKMVMIQDGPQNTGIDKPLRITGDPYKVQQAKEMVLELIRD [A48I]
4. GNAVQEIMIPASKAGLVIGKGGETIKQLQERAGVKMVMIQDGPQNTGADKPLRITGDPYKVQQAKEMVLELIRN [D74N]

Output line:
1. -0.128
2. -1.08
3. 0.005
4. -0.114

For each of the items listed, what is its abundance fitness?
1. GNAVQEIMIPASKAGLVIGKGGETIKQLQERAGVKMVMIQDGPQNTGADKPLRITGDPYKEQQAKEMVLELIRD [V61E]
2. GNAVQEIMIPASKAGLVIGKGGETIKQLQERACVKMVMIQDGPQNTGADKPLRITGDPYKVQQAKEMVLELIRD [G33C]
3. GNAVQEIMIPASKAGLVIGKGGETIKQLQERAGVKMVMIQDGPQNTGAPKPLRITGDPYKVQQAKEMVLELIRD [D49P]
4. GNAVQEIMIPASKAGLVIGKGGETIKQLQERAGVKMVMIQDGPQNTGADKPLRITGDPYKVQQAKEMVLELGRD [I72G]
5. GNAVQEIMIPASKAGLVIGKGGETIKQLQERAGVKMVMIQDGPQNTGADKPLKITGDPYKVQQAKEMVLELIRD [R53K]

Output line:
[-0.787, -0.125, -0.01, -0.329, -0.025]

For each of the items listed, what is its abundance fitness?
1. GNAVQEIMIPASKAGLVIGDGGETIKQLQERAGVKMVMIQDGPQNTGADKPLRITGDPYKVQQAKEMVLELIRD [K20D]
2. GNAVQEIMIPLSKAGLVIGKGGETIKQLQERAGVKMVMIQDGPQNTGADKPLRITGDPYKVQQAKEMVLELIRD [A11L]
3. GNAVQEIMIPASKAGLVIGKGGETIKQLQERAGVKMVMIQDGPQNTAADKPLRITGDPYKVQQAKEMVLELIRD [G47A]
4. GNAVQEIMIPASKAGLVIGKGGETIKQLQERAGVKMVMIQDGPQNTGADKPLRIFGDPYKVQQAKEMVLELIRD [T55F]
5. GNAVQEIMIPHSKAGLVIGKGGETIKQLQERAGVKMVMIQDGPQNTGADKPLRITGDPYKVQQAKEMVLELIRD [A11H]
6. GNAVQEIMIPASKAGLVIGKGGETIKQLQERAGVKMVMIQDGPQNTGADKPLRIYGDPYKVQQAKEMVLELIRD [T55Y]
7. GNAVQEIMIPASKAGLVIGKGGETIKQLQERAGVKMVMIQDGPQNTGADKPLRITGDPYTVQQAKEMVLELIRD [K60T]

Output line:
0.049
-0.092
-0.02
-0.062
-0.133
-0.132
-0.278
